Attribution: patent US8471005B2

The entries below come with measured IC50 values attached.
SYSTEM: ALK (Homo sapiens)
Construct: host or cells: baculovirus expression system
Sequence (Q9UM73 19-1620): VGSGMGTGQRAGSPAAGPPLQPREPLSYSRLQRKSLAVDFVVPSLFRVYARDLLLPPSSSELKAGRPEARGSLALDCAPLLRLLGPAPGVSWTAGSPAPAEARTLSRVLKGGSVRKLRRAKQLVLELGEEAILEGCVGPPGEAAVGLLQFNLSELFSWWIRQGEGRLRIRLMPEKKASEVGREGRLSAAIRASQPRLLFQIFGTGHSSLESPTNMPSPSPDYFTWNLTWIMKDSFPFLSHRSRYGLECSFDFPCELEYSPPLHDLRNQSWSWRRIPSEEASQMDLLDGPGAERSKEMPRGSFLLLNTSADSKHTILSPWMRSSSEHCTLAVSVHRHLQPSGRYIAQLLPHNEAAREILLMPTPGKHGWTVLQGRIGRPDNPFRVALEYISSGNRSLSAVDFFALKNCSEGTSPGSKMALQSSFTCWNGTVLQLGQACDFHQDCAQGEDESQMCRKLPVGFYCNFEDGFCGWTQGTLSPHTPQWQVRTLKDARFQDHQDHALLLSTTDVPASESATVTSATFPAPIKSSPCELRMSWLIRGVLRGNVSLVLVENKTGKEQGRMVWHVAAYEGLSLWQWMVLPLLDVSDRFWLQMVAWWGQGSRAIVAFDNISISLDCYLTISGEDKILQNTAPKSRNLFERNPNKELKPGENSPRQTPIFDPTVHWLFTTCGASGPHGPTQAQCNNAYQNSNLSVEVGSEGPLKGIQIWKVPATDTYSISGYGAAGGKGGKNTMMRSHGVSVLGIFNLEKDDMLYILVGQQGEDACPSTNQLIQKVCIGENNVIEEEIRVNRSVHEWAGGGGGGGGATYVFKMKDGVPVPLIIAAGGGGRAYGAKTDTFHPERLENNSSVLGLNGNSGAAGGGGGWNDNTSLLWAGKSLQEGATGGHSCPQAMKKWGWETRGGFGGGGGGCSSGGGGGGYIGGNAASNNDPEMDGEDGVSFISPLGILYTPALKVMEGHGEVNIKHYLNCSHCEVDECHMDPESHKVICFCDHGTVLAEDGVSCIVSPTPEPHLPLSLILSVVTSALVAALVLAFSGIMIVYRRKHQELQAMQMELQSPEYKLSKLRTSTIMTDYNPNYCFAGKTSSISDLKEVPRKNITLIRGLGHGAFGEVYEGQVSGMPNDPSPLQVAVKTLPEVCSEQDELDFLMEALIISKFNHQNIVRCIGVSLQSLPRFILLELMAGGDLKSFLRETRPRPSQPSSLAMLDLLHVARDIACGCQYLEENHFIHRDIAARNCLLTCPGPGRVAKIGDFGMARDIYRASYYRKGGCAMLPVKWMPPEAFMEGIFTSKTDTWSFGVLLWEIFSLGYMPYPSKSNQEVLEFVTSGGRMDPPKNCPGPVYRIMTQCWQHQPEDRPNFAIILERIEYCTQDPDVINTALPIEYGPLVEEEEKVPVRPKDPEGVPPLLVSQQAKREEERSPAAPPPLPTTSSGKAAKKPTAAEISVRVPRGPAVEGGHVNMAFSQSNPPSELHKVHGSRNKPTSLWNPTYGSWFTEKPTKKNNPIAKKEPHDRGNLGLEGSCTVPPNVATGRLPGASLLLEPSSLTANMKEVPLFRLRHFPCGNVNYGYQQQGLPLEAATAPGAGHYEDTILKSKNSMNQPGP
PROTOCOL TEXT: ALK Kinase Assay (ELISA/TRF, PLC-γ substrate)
Type: biochemical
RUN CONDITIONS: ALK Kinase Inhibition; read-out: ALK Potency

# COMPOUND, QUANTITY, RESULT
measured = [
    ("CS(=O)(=O)c1ccc(-c2ccc3cnc(Nc4ccc(N5CCC(CO)CC5)cc4)nn23)cc1", "IC50", "1 to 10 µM"),
]

Asked: Given the entry COc1ccc(-c2ccc3cnc(Nc4ccc(C5CN(C)CCN5C)cc4)nn23)cn1 (centres unmarked) , report its measured IC50.
Given back: 0.1 to 1 µM

Asked: Then this compound: `Clc1cccc(-c2ccc3cnc(Nc4ccc(N5CCOCC5)cc4)nn23)c1`
Given back: > 10 µM

Asked: Then this compound: `CN(C)S(=O)(=O)c1cccc(Nc2ncc3cc4ccccc4n3n2)c1`
Given back: > 10 µM

Asked: Then this compound: `COc1ccccc1-c1ccc2cnc(Nc3ccc4nc(CN5CCN(CCO)CC5)[nH]c4c3)nn12`
Given back: 0.1 to 1 µM

Asked: Then this compound: `COc1ncccc1-c1ccc2cnc(Nc3ccc4c(c3)CCN(CC(=O)N(C)C)CC4)nn12`
Given back: 0.1 to 1 µM

Asked: Then this compound: `OCc1cccc(-c2ccc3cnc(Nc4cccc(N5CCOCC5)c4)nn23)c1`
Given back: 1 to 10 µM

Asked: Then this compound: `COc1ccccc1-c1ccn2nc(Nc3ccc(N4CCN(C)CC4)cc3)ncc12`
Given back: > 10 µM

---

SYSTEM: JAK2 (Homo sapiens)
Construct: host or cells: baculovirus expression system
PROTOCOL TEXT: Recombinant Human JAK2 Kinase Assay (TRF)
Assay type: biochemical
RUN CONDITIONS: JAK2 kinase inhibition, 0.2 μM ATP; read-out: JAK2 Potency
QUANTITY: IC50

# COMPOUND, IC50
data = [
    ("COc1cc(Nc2ncc3ccc(-c4cccc(S(C)(=O)=O)c4)n3n2)ccc1C1CCN(CC(N)=O)CC1", "< 0.1 µM"),
    ("CN1CCN(c2ccc(Nc3ncc4ccc(NCc5cccnc5)n4n3)cc2)CC1", "< 0.1 µM"),
    ("CCN1CCN(C(=O)c2ccc(Nc3ncc4c(-c5ccc(F)cc5)ccn4n3)cc2)CC1", "> 10 µM"),
    ("COc1ccccc1-c1ccc2cnc(Nc3ccc(C4CCN(C(=O)OC(C)(C)C)C4)cc3)nn12 (stereo not drawn)", "< 0.1 µM"),
    ("COc1ccc(-c2ccc3cnc(Nc4ccc(C5CCN(C)CC5)c(C)c4)nn23)cn1", "< 0.1 µM"),
    ("CN1CCC(c2ccc(Nc3ncc4ccc(-c5ccc(S(C)(=O)=O)cc5)n4n3)cc2)CC1", "< 0.1 µM"),
]

Asked: Given the entry `CN1CCc2ccc(Nc3ncc4ccc(-c5cccc(S(=O)(=O)NC(C)(C)C)c5)n4n3)cc2C1` , report its measured IC50.
Given back: < 0.1 µM

Asked: Then this compound: `COc1ccc(-c2ccc3cnc(Nc4ccc5c(c4)CCN(C)C5)nn23)cn1`
Given back: < 0.1 µM

---

SYSTEM: JAK2 (Homo sapiens, UniProt O60674)
Construct: host or cells: baculovirus expression system
Sequence (O60674 whole entry): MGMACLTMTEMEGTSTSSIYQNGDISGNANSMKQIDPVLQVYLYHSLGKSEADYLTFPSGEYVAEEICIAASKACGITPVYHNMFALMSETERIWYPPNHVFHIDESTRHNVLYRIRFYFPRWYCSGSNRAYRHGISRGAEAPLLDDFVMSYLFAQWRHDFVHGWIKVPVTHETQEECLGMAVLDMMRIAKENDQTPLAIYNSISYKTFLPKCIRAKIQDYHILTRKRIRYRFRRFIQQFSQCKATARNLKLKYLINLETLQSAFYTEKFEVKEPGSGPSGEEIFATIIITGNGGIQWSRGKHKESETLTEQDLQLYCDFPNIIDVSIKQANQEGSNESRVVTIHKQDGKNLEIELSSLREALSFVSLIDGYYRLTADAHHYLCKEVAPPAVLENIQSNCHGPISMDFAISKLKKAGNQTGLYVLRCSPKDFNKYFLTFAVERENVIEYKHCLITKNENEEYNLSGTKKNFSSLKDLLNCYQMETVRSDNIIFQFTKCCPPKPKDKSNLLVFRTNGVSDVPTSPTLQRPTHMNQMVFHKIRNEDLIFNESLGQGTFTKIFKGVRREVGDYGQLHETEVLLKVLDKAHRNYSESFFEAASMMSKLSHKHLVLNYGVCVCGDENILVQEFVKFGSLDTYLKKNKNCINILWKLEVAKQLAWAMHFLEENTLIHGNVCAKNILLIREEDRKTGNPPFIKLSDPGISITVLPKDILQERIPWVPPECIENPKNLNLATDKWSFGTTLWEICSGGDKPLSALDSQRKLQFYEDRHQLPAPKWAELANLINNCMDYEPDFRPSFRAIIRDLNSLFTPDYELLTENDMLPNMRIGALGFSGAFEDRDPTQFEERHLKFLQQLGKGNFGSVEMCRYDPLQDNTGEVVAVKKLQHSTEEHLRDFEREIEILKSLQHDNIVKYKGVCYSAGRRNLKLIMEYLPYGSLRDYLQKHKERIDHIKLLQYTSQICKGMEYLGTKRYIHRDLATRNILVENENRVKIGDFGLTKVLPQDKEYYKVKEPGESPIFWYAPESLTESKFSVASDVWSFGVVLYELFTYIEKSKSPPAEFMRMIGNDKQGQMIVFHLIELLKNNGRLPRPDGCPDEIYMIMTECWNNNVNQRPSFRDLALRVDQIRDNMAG
PROTOCOL TEXT: Recombinant Human JAK2 Kinase Assay (TRF)
Format: biochemical
RUN CONDITIONS: JAK2 kinase inhibition, 0.2 μM ATP; read-out: JAK2 Potency
pIC50: −log10 of the molar value.
The entries below come with measured pIC50 values attached.

# MOLECULE, pIC50
rows = [
    ("CC(C)(C)NS(=O)(=O)c1cccc(-c2ccc3cnc(Nc4ccc(-c5cccnc5)cc4)nn23)c1 [Example 1085]", "> 7.00"),
    ("Cc1cc(Nc2ncc3ccc(-c4cccc(S(C)(=O)=O)c4)n3n2)ccc1C1CCN(C)CC1 [Example 946]", "> 7.00"),
]

Asked: Report pIC50 for COc1cc2c(cc1Nc1ncc3ccc(-c4cccc(S(=O)(=O)NC(C)(C)C)c4)n3n1)CCN(CCO)CC2 [Example 699] tested on JAK2 (Homo sapiens, UniProt O60674).
Given back: 6.00 to 7.00

Asked: Then this molecule: COc1cc([C@@H]2CCN(CCO)C[C@H]2O)ccc1Nc1ncc2ccc(-c3ccccc3OC)n2n1 (racemic) [Example 856]
Given back: > 7.00

Asked: Then this molecule: COc1ccccc1-c1c(C)c(C)c2cnc(Nc3ccc(N4CCN(C)CC4)cc3)nn12 [Example 1107]
Given back: > 7.00

Asked: Then this molecule: N#CCCn1cccc1-c1ccc2cnc(Nc3ccc(N4CCOCC4)cc3)nn12 [Example 1293]
Given back: > 7.00

Asked: Then this molecule: COc1ccccc1-c1ccc2cnc(Nc3ccc(C4CCNC4)cc3)nn12 (stereo not shown) [Example 1012]
Given back: > 7.00

Asked: Then this molecule: COc1ccc(-c2ccc3cnc(Nc4ccc(C5CCN(CC(N)=O)CC5)cc4OC)nn23)c(OC)c1 [Example 745]
Given back: 5.00 to 6.00

Asked: Then this molecule: COc1cc(C2CCN(C[C@@H](C)O)CC2)ccc1Nc1ncc2ccc(-c3ccccc3OC)n2n1 [Example 787]
Given back: 6.00 to 7.00

Asked: Then this molecule: C#CCNC(=O)c1cccc(-c2ccc3cnc(Nc4ccc(N5CCN(C)CC5)cc4)nn23)c1 [Example 1147]
Given back: > 7.00
